tested on: Phytophthora infestans; format: in vivo, Phytophthora infestans on tomato; conditions: hydrazone 50 ppm + 50 μM CuCl2.2H2O, applied 24 h before inoculation, assessed 7 days after inoculation, tomato
readout-name: TLB % Control

stdin: Quick check: TLB % Control of O=C(N/N=C/c1cc(Cl)cc(Cl)c1O)c1ccc(Br)cc1 ?
stdout: 91.5%

stdin: Query: TLB % Control; subject: C/C(=N\NC(=O)c1ccccc1N)c1ccccc1O
stdout: 4.8%

stdin: Would you mind telling me what TLB % Control value was observed for C/C(=N\NC(=O)c1ccc(C)cc1)c1ccc(Cl)cc1O ?
stdout: 0.0%

stdin: May I ask what TLB % Control has been recorded for O=C(N/N=C/c1cc(Cl)ccc1O)c1ccc(Br)cc1 ?
stdout: 29.8%

stdin: Requested field: TLB % Control. Item: COc1cc(Br)cc(/C=N/NC(=O)c2ccc(C)cc2)c1O
stdout: 80.7%

stdin: # lookup: TLB % Control of COc1ccc(/C=N/NC(=O)c2ccccc2)c(O)c1
stdout: 13.5%

stdin: Can you share its TLB % Control? I mean this molecule: O=C(N/N=C/c1cc(Cl)cc(Cl)c1O)c1cc(Cl)cc(Cl)c1
stdout: 84.4%

stdin: I'd like to know its TLB % Control. The molecule in question is Cc1cccc(O)c1/C=N/NC(=O)c1ccccc1
stdout: 50.9%

stdin: Can you share its TLB % Control? I mean this molecule: O=C(N/N=C/c1cc(Br)cc(Br)c1O)c1ccc(Br)cc1
stdout: 85.3%

stdin: Which value of TLB % Control has been reported for C/C(=N\NC(=O)c1ccccc1Cl)c1cccc([N+](=O)[O-])c1O in the records?
stdout: 37.0%

stdin: Given the molecule C/C(=N\NC(=O)Cc1ccccc1)c1cc(Cl)cc(Cl)c1O , what is its reported TLB % Control?
stdout: 81.0%

stdin: I'd like to know its TLB % Control. The molecule in question is O=C(N/N=C/c1cc(Br)cc([N+](=O)[O-])c1O)c1ccccc1
stdout: 87.0%

stdin: For the molecule O=C(N/N=C/c1cc(Cl)cc(Cl)c1O)c1cccc(F)c1 , what TLB % Control is on record?
stdout: 85.8%

stdin: What measured TLB % Control goes with Cc1cc(C)cc(C(=O)N/N=C/c2cc(Cl)cc(Br)c2O)c1 ?
stdout: 59.6%

stdin: Fill blank: measured TLB % Control of the molecule C/C(=N\NC(=O)c1cccc(C)c1)c1cc(Br)ccc1O is ____.
stdout: 45.0%

stdin: // query TLB % Control value for entry O=C(N/N=C/c1cc(Cl)cc(Cl)c1O)c1ccc(F)cc1
stdout: 93.2%

stdin: Which TLB % Control value belongs to COc1cccc(C(=O)N/N=C(\C)c2ccccc2O)c1 ?
stdout: 62.0%

stdin: What value of TLB % Control has been reported for the following molecule? C/C(=N\NC(=O)c1cccc(Cl)c1)c1cc(Cl)cc(Cl)c1O
stdout: 96.0%

stdin: Value lookup for TLB % Control; key = Cc1ccccc1C(=O)N/N=C/c1cc(Cl)ccc1O
stdout: 61.8%

stdin: Need TLB % Control, item C/C(=N\NC(=O)c1ccccc1Cl)c1cc(Br)ccc1O
stdout: 67.0%

stdin: I'd like to know its TLB % Control. The molecule in question is C/C(=N\NC(=O)c1ccc(C)cc1C)c1ccccc1O [Example 29]
stdout: 50.8%

stdin: Please report the recorded TLB % Control for O=C(N/N=C/c1cccc(Cl)c1O)c1ccccc1 .
stdout: 81.3%

stdin: Param item = O=C(N/N=C/c1c(Cl)ccc(Cl)c1O)c1ccccc1 ; retrieve measured TLB % Control.
stdout: 84.7%

stdin: What measured TLB % Control goes with Cc1ccc(C(=O)N/N=C/c2ccccc2O)cc1 ?
stdout: 59.6%

stdin: Given the molecule Cc1cccc(/C=N/NC(=O)c2ccccc2)c1O , what is its reported TLB % Control?
stdout: 57.6%

stdin: So what's the measured TLB % Control for this one? O=C(N/N=C/c1c(O)cccc1Cl)c1ccccc1
stdout: 88.1%

stdin: Need TLB % Control, item O=C(N/N=C/c1cc(Cl)cc([N+](=O)[O-])c1O)c1ccccc1
stdout: 87.5%

stdin: Return reported TLB % Control; argument: COc1ccc(O)c(/C(C)=N/NC(=O)c2ccc(C)cc2)c1
stdout: 21.0%

stdin: Endpoint output: TLB % Control of C/C(=N\NC(=O)c1ccccc1C)c1ccc(Cl)cc1O . Value?
stdout: 28.0%

stdin: State the recorded TLB % Control for this entry: Cc1cc(C)cc(C(=O)N/N=C/c2cc(Br)ccc2O)c1
stdout: 74.6%

stdin: So what's the measured TLB % Control for this one? O=C(N/N=C/c1cc(Cl)cc(Cl)c1O)c1cc(Cl)ccc1Br
stdout: 68.4%

stdin: Suppose we examine the molecule COc1ccc(O)c(/C(C)=N/NC(=O)c2ccc(Cl)cc2)c1 ; what TLB % Control value has been reported?
stdout: 33.0%

stdin: # lookup: TLB % Control of COc1cccc(C(=O)N/N=C/c2cc(Cl)cc(Br)c2O)c1C
stdout: 65.5%

stdin: Endpoint output: TLB % Control of COc1ccc(C(=O)N/N=C(\C)c2ccccc2O)cc1 . Value?
stdout: 60.0%

stdin: Fill blank: measured TLB % Control of the molecule Cc1cccc(C(=O)N/N=C/c2cc(Cl)cc(Br)c2O)c1 is ____.
stdout: 80.4%

stdin: TLB % Control lookup needed for Cc1ccc([N+](=O)[O-])c(C(=O)N/N=C/c2cc(Cl)cc(Cl)c2O)c1 , thanks.
stdout: 67.3%

stdin: Would you mind telling me what TLB % Control value was observed for C/C(=N\NC(=O)c1ccccc1[N+](=O)[O-])c1ccccc1O ?
stdout: 40.0%

stdin: Param item = O=C(N/N=C/c1cc(Cl)cc(Cl)c1O)c1ccc(-c2ccccc2)cc1 ; retrieve measured TLB % Control.
stdout: 63.6%

stdin: Given the molecule C/C(=N\NC(=O)c1ccccc1Br)c1ccccc1O , what is its reported TLB % Control?
stdout: 43.0%
